Tested on: SW-620 colon
Assay: NCI tumour cell line growth inhibition, 48 h; in the data active = GI50 below about 0.43 µM; inactive = the rest
Outcome codes: Yes (active), No (inactive)

{"compound": "O=c1cccc(C#Cc2ccccc2)o1", "label": "No"}
{"compound": "COc1cc(NN=C(c2ccc(O)cc2)c2ccc(O)cc2)c([N+](=O)[O-])cc1[N+](=O)[O-]", "label": "No"}
{"compound": "COc1ccc(-c2cnc(-c3ccc(F)cc3)[nH]2)cc1", "label": "No"}
{"compound": "CCOC(=O)/C=C1\\SC(=Nc2ccc(C#N)cc2)N(CCN2C(=O)/C(=C/C(=O)OCC)SC2=Nc2ccc(C#N)cc2)C1=O", "label": "Yes"}
{"compound": "N#C/C(=C\\c1ccc(Br)cc1)n1nnc2cccc(F)c21", "label": "No"}
{"compound": "Nc1ccn([C@H]2C[C@@H](O)[C@@H](CO)S2)c(=O)n1", "label": "No"}
{"compound": "Nc1nc2c(c3ncccc13)C(c1cccc(Cl)c1)Cc1ncccc1-2 (configuration not stated)", "label": "No"}
